Tested on: Hepatitis C virus
Test: Antiviral activity against HCV genotype 1b infected in human HuH7 cells by replicon based assay
Type: functional, cell-based, Hepacivirus hominis
Details: Huh-7
pEC50: −log10 of the molar value.
Entries and their measured pEC50 follow.
property.measured: pEC50

C[C@@]1(F)[C@H](O)[C@@H](CO)O[C@H]1n1ccc(N)nc1=O; 5.64
CC(C)OC(=O)[C@H](C)N[P@](=O)(OC[C@H]1O[C@@](C#N)(n2ccc(N)nc2=O)[C@](C)(F)[C@@H]1O)Oc1ccccc1; 4.75
CC(C)OC(=O)[C@H](C)N[P@](=O)(OC[C@H]1O[C@@](C#N)(n2ccc(=O)[nH]c2=O)[C@](C)(F)[C@@H]1O)Oc1ccccc1; 4.20
C[C@@]1(O)[C@H](O)[C@@H](CO)O[C@H]1n1ccc(=O)[nH]c1=O; 4.88

====

Experiment: Inhibition of HCV genotype 1b NS5B RNA dependent RNA polymerase assessed as reduction in triphosphate activity
Design: species or system Hepatitis C virus subtype 1b
Details: read-out: IC50
pIC50: −log10 of the molar value.
property.measured: pIC50

C[C@@]1(O)[C@H](O)[C@@H](CO)O[C@H]1n1ccc(N)nc1=O; 5.77
C[C@@]1(O)[C@H](O)[C@@H](CO)O[C@H]1n1ccc(=O)[nH]c1=O; 5.72
C[C@@]1(F)[C@H](O)[C@@H](CO)O[C@@]1(C#N)n1ccc(N)nc1=O; 4.24
C[C@@]1(O)[C@H](O)[C@@H](CO)O[C@@]1(C#N)n1ccc(=O)[nH]c1=O; 4.57
C[C@@]1(O)[C@H](O)[C@@H](CO)O[C@@]1(C#N)n1ccc(N)nc1=O; 4.75
C[C@@]1(F)[C@H](O)[C@@H](CO)O[C@H]1n1ccc(=O)[nH]c1=O; 6.15

====

Test: Inhibition of HCV genotype 1b NS5B RNA dependent RNA polymerase assessed as reduction in triphosphate activity
Design: species or system Hepatitis C virus subtype 1b
property.measured: Ki (nM)

C[C@@]1(F)[C@H](O)[C@@H](CO)O[C@H]1n1ccc(N)nc1=O; 60

====

System: Hepatitis C virus
Assay: Antiviral activity against HCV genotype 2a infected in human HuH7 cells by replicon based assay
Assay type: functional, cell-based, Hepacivirus hominis
Conditions: Huh-7
property.measured: EC50 (nM)

CC(C)OC(=O)[C@H](C)N[P@](=O)(OC[C@H]1O[C@@](C#N)(n2ccc(N)nc2=O)[C@](C)(F)[C@@H]1O)Oc1ccccc1; 2300

====

Experiment: Inhibition of HCV genotype 2a NS5B RNA dependent RNA polymerase assessed as reduction in triphosphate activity
Set-up: species or system Hepatitis C virus subtype 2a
pIC50: −log10 of the molar value.
property.measured: pIC50

C[C@@]1(F)[C@H](O)[C@@H](CO)O[C@H]1n1ccc(=O)[nH]c1=O; 6.15
